Values were extracted from ChEMBL document CHEMBL5096208.

- Procedure Text: Clearance in Sprague-Dawley rat at 2 mg/kg, iv administered as single dose through tail vein measured upto 24 hrs post dose by UPLC-MS/MS analysis
- Format: ADME, organism-based
- Conditions: in vivo

[
  {
    "Smiles Repr": "C#CCN(C)Cc1cccc(NC(=O)CCCCCCC(=O)NO)c1",
    "clearance [mL/min/kg]": 500
  }
]

----------
- Assay System: Histone deacetylase 3 (Homo sapiens, UniProt O15379)
- Sequence (O15379 whole entry): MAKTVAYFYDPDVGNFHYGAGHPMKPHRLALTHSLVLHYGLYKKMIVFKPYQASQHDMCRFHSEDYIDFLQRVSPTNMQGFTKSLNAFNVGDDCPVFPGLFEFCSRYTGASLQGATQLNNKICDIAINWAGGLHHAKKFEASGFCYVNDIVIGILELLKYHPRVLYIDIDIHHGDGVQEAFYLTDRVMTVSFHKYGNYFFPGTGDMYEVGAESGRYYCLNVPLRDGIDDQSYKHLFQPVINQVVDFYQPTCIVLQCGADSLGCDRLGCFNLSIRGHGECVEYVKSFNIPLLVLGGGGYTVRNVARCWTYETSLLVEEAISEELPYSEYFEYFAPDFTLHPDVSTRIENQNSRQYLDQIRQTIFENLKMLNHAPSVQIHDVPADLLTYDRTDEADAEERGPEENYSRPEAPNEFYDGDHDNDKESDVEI
Quantity Name: IC50

[
  {
    "Smiles Repr": "C#CCN(C)Cc1cccc(NC(=O)CCCCCCC(=O)NO)c1",
    "Result": "133 nM"
  }
]

----------
- System: PC-3
- Procedure Text: Antiproliferative activity against human PC-3 cells assessed as cell growth inhibition incubated for 48 hrs by MTT assay
- Type: functional
Quantity Name: GI50

[
  {
    "Smiles Repr": "C#CCN(C)Cc1ccc(NS(=O)(=O)c2cccc(/C=C/C(=O)NO)c2)cc1",
    "Result": "0.367 µM"
  },
  {
    "Smiles Repr": "C#CCN(C)Cc1ccccc1",
    "Result": "197 µM"
  },
  {
    "Smiles Repr": "C#CCN(C)Cc1ccc(NC(=O)CCCCC(=O)NO)cc1",
    "Result": "> 10 µM"
  }
]

----------
- Assay System: Protein deacetylase HDAC6 (Homo sapiens)
- Sequence (Q9UBN7 whole entry): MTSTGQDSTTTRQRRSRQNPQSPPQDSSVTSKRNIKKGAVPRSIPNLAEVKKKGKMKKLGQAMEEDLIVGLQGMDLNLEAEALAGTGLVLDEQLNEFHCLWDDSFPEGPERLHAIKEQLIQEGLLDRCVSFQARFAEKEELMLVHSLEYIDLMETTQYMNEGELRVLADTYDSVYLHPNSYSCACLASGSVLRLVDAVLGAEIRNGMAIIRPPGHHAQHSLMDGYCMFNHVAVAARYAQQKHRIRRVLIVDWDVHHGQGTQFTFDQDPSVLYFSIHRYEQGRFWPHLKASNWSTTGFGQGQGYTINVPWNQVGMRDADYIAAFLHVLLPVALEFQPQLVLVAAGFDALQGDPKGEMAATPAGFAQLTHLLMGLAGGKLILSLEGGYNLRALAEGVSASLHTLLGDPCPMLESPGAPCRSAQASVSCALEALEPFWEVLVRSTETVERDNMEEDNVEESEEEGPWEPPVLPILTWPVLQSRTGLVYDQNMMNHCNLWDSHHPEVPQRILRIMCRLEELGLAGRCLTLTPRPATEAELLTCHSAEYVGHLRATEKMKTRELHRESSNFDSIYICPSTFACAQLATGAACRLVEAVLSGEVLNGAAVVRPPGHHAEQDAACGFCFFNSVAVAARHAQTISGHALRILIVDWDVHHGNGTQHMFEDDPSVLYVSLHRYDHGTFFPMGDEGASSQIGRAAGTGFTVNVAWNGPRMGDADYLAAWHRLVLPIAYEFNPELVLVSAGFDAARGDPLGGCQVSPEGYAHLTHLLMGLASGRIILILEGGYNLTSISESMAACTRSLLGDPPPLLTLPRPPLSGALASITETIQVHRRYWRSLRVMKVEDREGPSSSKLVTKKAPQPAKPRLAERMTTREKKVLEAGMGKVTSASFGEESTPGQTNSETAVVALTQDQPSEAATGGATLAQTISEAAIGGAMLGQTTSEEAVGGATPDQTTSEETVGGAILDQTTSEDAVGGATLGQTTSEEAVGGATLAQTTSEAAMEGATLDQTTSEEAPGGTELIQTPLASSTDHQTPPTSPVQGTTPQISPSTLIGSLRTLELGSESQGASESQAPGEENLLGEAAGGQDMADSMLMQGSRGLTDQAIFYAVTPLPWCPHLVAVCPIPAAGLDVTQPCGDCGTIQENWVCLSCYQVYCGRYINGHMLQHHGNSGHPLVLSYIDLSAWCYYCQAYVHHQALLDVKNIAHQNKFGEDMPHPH
Quantity Name: IC50 (µM)

[
  {
    "Smiles Repr": "C#CCN(C)Cc1cccc(NC(=O)CCCCCCC(=O)NO)c1",
    "Quantitative Readout": 0.02
  }
]

----------
- Assay System: Histone deacetylase 1 (Homo sapiens, UniProt Q13547)
- Sequence (Q13547 whole entry): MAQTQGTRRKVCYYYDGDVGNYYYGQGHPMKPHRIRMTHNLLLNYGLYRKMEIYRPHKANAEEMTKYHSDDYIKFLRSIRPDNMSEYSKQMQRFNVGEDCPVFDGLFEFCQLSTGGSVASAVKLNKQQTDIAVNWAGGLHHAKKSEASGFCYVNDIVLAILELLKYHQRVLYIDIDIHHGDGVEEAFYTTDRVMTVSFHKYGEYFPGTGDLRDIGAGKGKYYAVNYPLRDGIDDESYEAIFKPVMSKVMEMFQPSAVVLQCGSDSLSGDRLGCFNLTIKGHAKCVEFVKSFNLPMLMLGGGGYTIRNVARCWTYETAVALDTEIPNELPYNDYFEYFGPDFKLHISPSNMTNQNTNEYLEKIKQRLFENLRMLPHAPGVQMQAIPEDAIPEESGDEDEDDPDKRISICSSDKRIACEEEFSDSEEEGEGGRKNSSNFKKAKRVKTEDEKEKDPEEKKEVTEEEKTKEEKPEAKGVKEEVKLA

[
  {
    "Smiles Repr": "C#CCN(C)Cc1cccc(NC(=O)CCCCCCC(=O)NO)c1",
    "Assay System": "Histone deacetylase 1 (Homo sapiens, UniProt Q13547)",
    "IC50 [nM]": 673
  }
]

----------
Target chain: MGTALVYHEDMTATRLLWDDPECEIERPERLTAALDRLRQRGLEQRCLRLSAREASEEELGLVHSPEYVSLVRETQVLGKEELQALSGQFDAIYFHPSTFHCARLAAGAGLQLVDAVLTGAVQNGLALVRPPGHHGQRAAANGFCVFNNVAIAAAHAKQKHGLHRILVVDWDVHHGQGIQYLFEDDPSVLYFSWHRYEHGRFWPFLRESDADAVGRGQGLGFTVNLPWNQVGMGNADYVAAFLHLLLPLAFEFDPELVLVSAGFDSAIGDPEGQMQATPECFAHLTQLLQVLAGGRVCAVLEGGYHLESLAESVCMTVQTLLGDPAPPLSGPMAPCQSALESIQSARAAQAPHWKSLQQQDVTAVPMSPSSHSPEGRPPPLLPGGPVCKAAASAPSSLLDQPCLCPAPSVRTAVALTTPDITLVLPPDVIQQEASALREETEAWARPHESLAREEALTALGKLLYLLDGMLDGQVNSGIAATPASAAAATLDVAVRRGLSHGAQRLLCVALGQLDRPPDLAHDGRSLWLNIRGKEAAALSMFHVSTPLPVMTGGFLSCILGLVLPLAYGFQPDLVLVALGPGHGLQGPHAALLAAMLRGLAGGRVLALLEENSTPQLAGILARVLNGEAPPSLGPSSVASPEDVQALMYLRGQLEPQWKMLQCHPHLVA

[
  {
    "Smiles Repr": "C#CCN(C)Cc1cccc(NC(=O)CCCCCCC(=O)NO)c1",
    "IC50": "374 nM"
  }
]
